Cited source for all entries: the supplement of paper PMC7125110

self-cleavage kobs at 2500 uM GlcN6P listing for selected variants.
B1: glmS ribozyme (parent)
chain: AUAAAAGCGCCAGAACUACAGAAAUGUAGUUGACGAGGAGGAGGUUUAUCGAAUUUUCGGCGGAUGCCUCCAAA

Variants of: B1
Test: self-cleavage kobs at 2500 uM GlcN6P; higher = faster cleavage; RNA array
Conditions: with glucosamine-6-phosphate
This sample holds only a part of the variants without activity.
Write the answer as a number in s⁻¹, unit excluded.

Example entries and their recorded answers appear below.
>>> result("A15C A42G A53C")
0.000746
>>> result("U56A C70U C71U")
0.000232
>>> result("A15G U46A A48U")
"5.82e-05"
>>> result("G37A A53C C71U")
"6.98e-05"

For the variant shown here, G40A U46G C67U , give the reported self-cleavage kobs at 2500 uM GlcN6P.
0.000431

For the variant shown here, C16U A52G , give the reported self-cleavage kobs at 2500 uM GlcN6P.
0.000576

For the variant shown here, G43A U54G , give the reported self-cleavage kobs at 2500 uM GlcN6P.
6.39e-05

For the variant shown here, C50A C67A C70U , give the reported self-cleavage kobs at 2500 uM GlcN6P.
0.000109

For the variant shown here, C16G G32U G66A , give the reported self-cleavage kobs at 2500 uM GlcN6P.
0.000109
